System: Plasmodium falciparum
Assay: Calibr Malaria Delayed Death Assay SOP
Assay type: functional, organism-based
Parameters: scale not given: in the data most compounds retested in dose-response had high values
Conditions: concentration 4.99e-06 (unit not given; other assays of the set use mol/L)
Screen size: about 38,000 compounds; about 1,200 (3.2%) showed an effect of 50% or more. The median lay at about -58%. What follows is part of a selection rich in strong results, with near analogues and random picks from the rest.
Kindly return 1 (yes) if reported Percent Effect is no lower than 30%; return 0 (no) if it is lower.

Below, 3 compounds whose answers are already recorded.
COMPOUND	CLASS ASSIGNMENT
CC(NCCn1cccn1)c1cc(F)ccc1F (configuration not stated)	0 (no)
CC(c1cc(F)ccc1F)N1CCN(Cc2nccn2C)CC1 (configuration not stated)	0 (no)
Cc1cc(C)c2cc(CNC3CCCCC3)c3nn(C)c(=O)n3c2c1	1 (yes)

Enquiry: Is reported Percent Effect greater than or equal to 30% here: O=C(Cn1nc(N2CCOCC2)ccc1=O)Nc1nccs1
Return: 0 (no)
